Origin of measurements: ChEMBL document CHEMBL1201862

System: SK-OV-3
Test: NCI tumour cell line growth inhibition, 48 h
Active and inactive are the calls of the source. No stated cut-off is given here; in the data, active = GI50 up to about 1.1 µM and inactive = higher.
Observed Property: GI50

Please review the entries below; each comes with its answer.
CN(C)/C(=N/C(=O)Nc1ccccc1)SCc1ccccc1    > 100 µM (inactive)
O=C1C=C2S[C@H]3C[C@]2(C=C1Br)C1=C(N3)C(=O)c2[nH]cc3c2C1=NCC3 [(+)-DISCORHABDIN B]    5.62 µM (inactive)
CCCCn1c(CSc2ccc(Cl)cc2)c(C(=O)OCC)c2cc(OC)c(Br)cc21    > 100 µM (inactive)
Nc1ccc([As](=O)(O)O)cc1 [ARSANILIC ACID]    > 100 µM (inactive)
OC[C@H]1NC[C@@H](O)[C@@H](O)[C@H]1O    > 100 µM (inactive)

[Q] Consider the molecule shown here: Cc1ccc(S(=O)(=O)/N=C2/N(C)CCCS2(=O)=O)cc1 What is its recorded GI50?
[A] > 100 µM (inactive)

[Q] // returns reported GI50 for input CCN1C2=NCCN2S(=O)(=O)c2ccccc21
[A] > 100 µM (inactive)

[Q] Quick one: GI50 of OCCCCCNc1nc(O)c2[nH]cnc2n1 ?
[A] > 10 µM (inactive)

[Q] Need GI50, item Cc1c2cc[n+](C)cc2c(C)c2c1oc1ccccc12
[A] 14.7 µM (inactive)

[Q] Param item = CSCCC(NC(c1ccccc1)c1ccccc1)[PH](=O)O (centres undefined) ; retrieve measured GI50.
[A] > 100 µM (inactive)

[Q] // GI50 lookup, key: CC1(C)OC(=O)C(c2cccs2)C(=O)O1
[A] > 100 µM (inactive)

[Q] If you can, please state the reported GI50 value of CN(CC1(CO)CCC1)c1cc(Cl)nc(N)n1 .
[A] > 100 µM (inactive)

[Q] Item under review: CC(C)CN(CC#N)CC(C)C . Reported GI50?
[A] > 100 µM (inactive)

[Q] Requested read-out: GI50. Entry: CC1=Nc2c(ccc3c2C(=O)c2ccccc2C3=O)NC(c2ccncc2)C1 (centres undefined)
[A] 6.49 µM (inactive)

[Q] What GI50 value was documented for this molecule, COC1C=COC2(C)Oc3c(C)c(O)c4c(O)c(c(/C=N/N5CCN(N)CC5)c(O)c4c3C2=O)NC(=O)C(C)=CC=CC(C)C(O)C(C)C(O)C(C)C(OC(C)=O)C1C (centres undefined) ?
[A] > 100 µM (inactive)

[Q] Query (molecule): Cc1c2cccc-2c(OCCO)cc2c3ccccc3n(C)c12 ; field requested: GI50
[A] 1.58 µM (inactive)

[Q] Look up GI50: COc1cccc(/C=C2\N=C(c3ccccc3)OC2=O)c1
[A] > 100 µM (inactive)

[Q] Reported GI50, molecule CSc1nc(SC)c2c(C)cn(Cc3ccccc3)c2n1 : ____
[A] > 100 µM (inactive)

[Q] Recorded GI50 for CC1(C)CO[P@@](=S)(c2ccccn2)O[C@@H]1c1ccccc1 , please?
[A] > 100 µM (inactive)
